All values here come from patent US7495018B2.

{"columns": ["MOLECULE", "melting point"],
 "data": [
  ["CCC(=O)Nc1cc(-c2sc(CC)nc2-c2ccc(F)cc2)ccn1 [Example 84-2]", "156 to 157 °C"],
  ["Cc1cccc(-c2nc(N3CCN(C)CC3)sc2-c2ccnc(C)c2)c1 [Example Compound 14-14]", "127 to 130 °C"],
  ["Nc1nc(-c2cccc(Cl)c2)c(-c2ccnc(N3CCCCC3)c2)s1 [Example Compound 35-1]", "206 to 208 °C"],
  ["CC(=O)Nc1cc(-c2sc(C(C)=O)nc2-c2cccc(Cl)c2)ccn1 [Example 112]", "180 to 183 °C"],
  ["Cc1cccc(-c2nc(-c3ccc(S(C)(=O)=O)cc3)sc2-c2ccnc(NCC3CCCCC3)c2)c1 [Example Compound 37-3]", "157 to 159 °C"],
  ["COc1ccc(C(=O)Nc2nc(-c3cccc(C)c3)c(-c3ccnc(C)c3)s2)cn1 [Example Compound 47]", "224 to 226 °C"],
  ["CC(=O)Nc1cc(-c2sc(-c3ccc(S(C)(=O)=O)cc3)nc2-c2cccc(Cl)c2)ccn1 [Example Compound 58-6]", "216 to 217 °C"],
  ["CCC(=O)Nc1cc(-c2sc(CC)nc2-c2cccs2)ccn1 [Example Compound 30-10]", "187 to 188 °C"],
  ["Cc1cccc(-c2nc(-c3ccc(F)cc3F)sc2-c2ccnc(C)c2)c1 [Example Compound 14-5]", "90 to 91 °C"],
  ["Cc1nc(-c2cccc(Cl)c2)c(-c2ccnc(N)c2)s1 [Example Compound 27-2]", "142 to 143 °C"],
  ["Cc1cccc(-c2nc(N)sc2-c2ccnc(NC3CCCC3)c2)c1 [Example Compound 34-3]", "169 to 170 °C"],
  ["CSCCc1nc(-c2cccc(C)c2)c(-c2ccnc(N)c2)s1 [Example 99-1]", "98 to 99 °C"],
  ["Cc1cccc(-c2nc(NC(=O)c3ccc(C)nc3)sc2-c2ccnc(C)c2)c1 [Example Compound 45]", "233 to 234 °C"],
  ["Nc1nc(-c2ccc(F)cc2)c(-c2ccnc(NC3CCCCC3)c2)s1 [Example Compound 36-1]", "194 to 195 °C"],
  ["Cc1cc(C)cc(-c2nc(N)sc2-c2ccnc(C)c2)c1 [Example Compound 7-5]", "219 to 220 °C"],
  ["CCC(=O)Nc1cc(-c2sc(C3CCN(C(C)=O)CC3)nc2-c2cccc(Cl)c2)ccn1 [Example 94]", "174 to 175 °C"],
  ["CCc1nc(-c2ccccc2)c(-c2ccnc(NC(C)=O)c2)s1 [Example Compound 82-1]", "175 to 176 °C"],
  ["CCc1nc(-c2cccc(C)c2)c(-c2ccnc(NCC3CCCC3)c2)s1 [Example Compound 32]", "67 to 69 °C"],
  ["CSCc1nc(-c2cccc(C)c2)c(-c2ccnc(N)c2)s1 [Example 113-1]", "113 to 114 °C"],
  ["CCC(=O)Nc1cc(-c2sc(C)nc2-c2cccc(Cl)c2)ccn1 [Example Compound 30-7]", "134 to 135 °C"],
  ["CCc1nc(-c2cccc(Cl)c2)c(-c2ccnc(F)c2)s1 [Example Compound 12]", "102 to 103 °C"],
  ["Cc1cccc(-c2nc(CC(F)(F)F)sc2-c2ccnc(N)c2)c1 [Example Compound 18-3]", "131 to 132 °C"],
  ["COc1cccc(-c2nc(N)sc2-c2ccnc(F)c2)c1 [Example Compound 7-1]", "190 to 191 °C"],
  ["CCc1nc(-c2ccccc2)c(-c2ccnc(NC(=O)OC(C)(C)C)c2)s1 [Example Compound 79-1]", "154 to 155 °C"],
  ["Cc1cccc(-c2nc(N)sc2-c2ccnc(NC3CCCCC3)c2)c1 [Example Compound 34-2]", "168 to 169 °C"],
  ["CCCc1nc(-c2cccc(Cl)c2)c(-c2ccnc(N)c2)s1 [Example Compound 21-1]", "99 to 100 °C"],
  ["COc1ncccc1C(=O)Nc1nc(-c2cccc(C)c2)c(-c2ccnc(C)c2)s1 [Example Compound 49]", "169 to 170 °C"],
  ["CSc1ccc(-c2nc(-c3ccc(F)cc3)c(-c3ccnc(C)c3)s2)cc1 [Example Compound 16-5]", "99 to 100 °C"],
  ["CCc1nc(-c2ccccc2)c(-c2ccnc(N)c2)s1 [Example Compound 20-2]", "158 to 159 °C"],
  ["CCc1cccc(-c2nc(CC)sc2-c2ccnc(N)c2)c1 [Example Compound 20-8]", "128 to 129 °C"],
  ["CCc1nc(-c2cccc(C(C)C)c2)c(-c2ccnc(NC(C)=O)c2)s1 [Example 82-8]", "116 to 117 °C"],
  ["CCc1nc(-c2cccc(C(F)(F)F)c2)c(-c2ccnc(N)c2)s1 [Example Compound 20-4]", "117 to 118 °C"],
  ["CCc1nc(-c2ccc(F)cc2)c(-c2ccnc(NC(C)=O)c2)s1 [Example 82-2]", "190 to 191 °C"],
  ["CCc1nc(-c2ccc(SC)cc2)c(-c2ccnc(N)c2)s1 [Example Compound 20-5]", "119 to 120 °C"]
]}

---

PARAMETER_MEASURED: melting point

{"columns": ["MOLECULE", "READOUT_VALUE"],
 "data": [
  ["Cc1cccc(-c2nc(N(C)C(=O)c3ccc(C)nc3)sc2-c2ccnc(NC3CCCC3)c2)c1 [Example 46-4]", "176 to 177 °C"],
  ["Cc1cccc(-c2nc(N(C)C)sc2-c2ccnc(C)c2)c1", "77 to 79 °C"],
  ["Cc1cccc(-c2nc(Cc3ccccc3)sc2-c2ccnc(C)c2)c1", "82 to 84 °C"],
  ["CC(=O)Nc1cc(-c2sc(C(C)O)nc2-c2cccc(Cl)c2)ccn1 (centres unmarked)", "142 to 145 °C"],
  ["CC(=O)Nc1cc(-c2scnc2-c2cccc(C)c2)ccn1", "149 to 150 °C"]
]}

---

Below, each entry is listed with its recorded melting point.

{"columns": ["STRUCTURE", "melting point"],
 "data": [
  ["CCc1nc(-c2cccc(F)c2)c(-c2ccnc(NC(C)=O)c2)s1", "141 to 142 °C"],
  ["CCc1nc(-c2ccc(Cl)cc2)c(-c2ccnc(NC(=O)CC3CCCC3)c2)s1", "149 to 150 °C"],
  ["CCCCCC(=O)Nc1cc(-c2sc(CC)nc2-c2cccc(C)c2)ccn1", "84 to 85 °C"],
  ["CC(=O)Nc1cc(-c2sc(C)nc2-c2cccc(C)c2)ccn1", "162 to 163 °C"],
  ["Cc1cc(C)cc(-c2nc(NC(=O)c3cccnc3)sc2-c2ccnc(C)c2)c1", "203 to 206 °C"],
  ["Cc1cccc(-c2nc(-c3ccc(S(C)(=O)=O)cc3)sc2-c2ccnc(NC3CCCC3)c2)c1", "154 to 156 °C"],
  ["CCc1nc(-c2cccc(Cl)c2)c(-c2ccnc(N)c2)s1", "132 to 133 °C"],
  ["CC(F)(F)c1nc(-c2cccc(Cl)c2)c(-c2ccnc(N)c2)s1", "131 to 132 °C"]
]}

---

- MEASURED_ON: human p38 MAP kinase (Homo sapiens)
- Sequence (Q16539 whole entry): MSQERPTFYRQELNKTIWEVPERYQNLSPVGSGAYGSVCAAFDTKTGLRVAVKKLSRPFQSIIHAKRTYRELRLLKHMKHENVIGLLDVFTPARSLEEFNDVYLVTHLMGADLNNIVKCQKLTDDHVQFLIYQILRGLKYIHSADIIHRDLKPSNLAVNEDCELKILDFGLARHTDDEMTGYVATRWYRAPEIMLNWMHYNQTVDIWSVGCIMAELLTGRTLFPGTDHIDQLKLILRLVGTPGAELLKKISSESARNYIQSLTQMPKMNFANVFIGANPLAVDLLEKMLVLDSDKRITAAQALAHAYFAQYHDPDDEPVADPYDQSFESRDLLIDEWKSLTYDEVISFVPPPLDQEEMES

{"columns": ["COMPOUND", "IC50 (nM)"],
 "data": [
  ["Cc1cccc(-c2nc(N(C)C(=O)c3ccc(C)nc3)sc2-c2ccnc(NC3CCCC3)c2)c1 [Example 46-4]", 17]
]}

---

Below, each entry is listed with its recorded melting point.
PARAMETER_MEASURED: melting point

{"columns": ["MOLECULE", "READOUT_VALUE"],
 "data": [
  ["Cc1cccc(-c2nc(-c3ccc(S(C)(=O)=O)cc3)sc2-c2ccnc(N(C)C3CCCCC3)c2)c1", "173 to 174 °C"],
  ["CCc1nc(-c2cccc(C(C)C)c2)c(-c2ccnc(N)c2)s1", "80 to 81 °C"],
  ["CCC(=O)Nc1cc(-c2sc(-c3ccc(S(C)(=O)=O)cc3)nc2-c2cccc(Cl)c2)ccn1", "224 to 225 °C"],
  ["CNc1nc(-c2cccc(C)c2)c(-c2ccnc(NC3CCCCC3)c2)s1", "211 to 212 °C"],
  ["Cc1cccc(-c2nc(-c3ccc(S(C)(=O)=O)cc3)sc2-c2ccnc(N3CCN(C)CC3)c2)c1", "153 to 154 °C"],
  ["CCC(=O)Nc1cc(-c2sc(CC)nc2-c2ccc(F)c(C)c2)ccn1", "105 to 107 °C"],
  ["CSc1ccc(-c2nc(-c3cccc(C)c3)c(-c3ccnc(NC(C)=O)c3)s2)cc1", "181 to 182 °C"],
  ["CCCc1cccc(-c2nc(CC)sc2-c2ccnc(N)c2)c1", "72 to 74 °C"],
  ["CCc1nc(-c2cccc(Cl)c2)c(-c2ccnc(NC3CCCCC3)c2)s1", "106 to 107 °C"],
  ["CCC(=O)Nc1cc(-c2sc(CC)nc2-c2cccc(C(C)C)c2)ccn1", "93 to 94 °C"],
  ["CCc1nc(-c2ccc(F)cc2)c(-c2ccnc(N)c2)s1", "140 to 141 °C"],
  ["CCc1nc(-c2cccc(C)c2)c(-c2ccnc(NC(=O)CC3CCCC3)c2)s1", "85 to 86 °C"],
  ["Cc1cc(C)cc(-c2nc(NC(=O)c3ccc(Cl)nc3)sc2-c2ccnc(C)c2)c1", "271 to 273 °C"],
  ["Cc1cc(C)cc(-c2nc(-c3ccc(S(C)(=O)=O)cc3)sc2-c2cc(C)nc(C)c2)c1", "217 to 220 °C"],
  ["Cc1cccc(-c2nc(C(C)(F)F)sc2-c2ccnc(N)c2)c1", "140 to 141 °C"],
  ["CCc1nc(-c2ccc(F)c(C)c2)c(-c2ccnc(NC(C)=O)c2)s1", "142 to 143 °C"],
  ["CC(=O)Nc1nc(-c2cc(C)cc(C)c2)c(-c2ccnc(C)c2)s1", "236 to 237 °C"],
  ["Cc1cccc(-c2nc(NC(=O)c3ccc(Cl)nc3)sc2-c2ccnc(NC3CCCC3)c2)c1", "211 to 212 °C"],
  ["CC(C)(C)C(=O)Nc1cc(-c2sc(-c3ccc(S(C)(=O)=O)cc3)nc2-c2cccc(Cl)c2)ccn1", "122 to 123 °C"],
  ["CSc1ccc(-c2nc(-c3cc(C)cc(C)c3)c(-c3cc(C)nc(C)c3)s2)cc1", "134 to 136 °C"],
  ["Cc1cccc(-c2nc(NC(=O)c3ccc(Cl)nc3)sc2-c2ccnc(NC3CCCCC3)c2)c1", "255 to 256 °C"],
  ["CC(=O)Nc1cc(-c2sc(C(C)OC(=O)c3ccccc3)nc2-c2cccc(C)c2)ccn1 (centres unmarked)", "110 to 113 °C"],
  ["CCc1nc(-c2cccs2)c(-c2ccnc(NC(C)=O)c2)s1", "154 to 155 °C"],
  ["CCC(=O)Nc1cc(-c2sc(CCSC)nc2-c2cccc(C)c2)ccn1", "85 to 86 °C"],
  ["CSCCc1nc(-c2cccc(Cl)c2)c(-c2ccnc(N)c2)s1", "96 to 97 °C"],
  ["COc1ccc(-c2nc(C)sc2-c2ccnc(N)c2)cc1", "140 to 141 °C"],
  ["Cc1cccc(-c2nc(C(=O)O)sc2-c2ccnc(N)c2)c1", "156 to 157 °C"],
  ["Cc1cccc(N2C=C(c3cc(C)nc(C)c3)SC2N)c1 (centres unmarked)", "214 to 216 °C"],
  ["COc1ccc(C(=O)Nc2nc(-c3cc(C)cc(C)c3)c(-c3ccnc(C)c3)s2)cn1", "242 to 244 °C"],
  ["CCC(=O)Nc1cc(-c2sc(CC)nc2-c2cccc(F)c2)ccn1", "121 to 122 °C"],
  ["Cc1cccc(-c2nc(N)sc2-c2ccnc(N3CCOCC3)c2)c1", "188 to 189 °C"],
  ["CCC(=O)Nc1cc(-c2sc(C(C)OC(=O)c3ccccc3)nc2-c2cccc(C)c2)ccn1 (centres unmarked)", "102 to 103 °C"]
]}
